System: Candida albicans
Assay: Infection-preventing effect in experimental infection in mice, Method 1 (Table 7-1)
Type: in vivo, Crj:CDF1 mice
Settings: Candida albicans, sc, 168 h, s.c., given 0 and 2 hours after infection; survival 7 days after infection; total dose; read-out: ED50
Where a name gives a salt, the structure may show the parent alone.

# compound, ED50
rows = [
    ("C[C@@H](SCc1nccn1CC(F)(F)C(F)F)[C@](O)(Cn1cncn1)c1ccc(F)cc1F (relative stereo) [30(hydrochloride)]", "0.88 mg/kg"),
    ("C[C@H](S)[C@](O)(Cn1cncn1)c1ccc(F)cc1F (racemic) [Compound 60]", "> 4 mg/kg"),
    ("Cc1nnc(S[C@H](C)[C@](O)(Cn2cncn2)c2ccc(F)cc2F)s1 (relative stereo) [Compound 26]", "3.2 mg/kg"),
    ("C[C@@H](SCc1nccn1CCF)[C@](O)(Cn1cncn1)c1ccc(F)cc1F (relative stereo) [Compound 48]", "0.77 mg/kg"),
]

Value source: patent US5405861A
